// values below are reported specific activity: β-galactosidase activity as ratio to TAB1C68
Target: TAK1 (Mus musculus)
Construct: A gene encoding a full-length TAK1 was prepared by digesting yeast 2-hybrid expression plasmid pBTMHu11F; expressed in transfected cells; host or cells: Saccharomyces cerevisiae strain L40
Sequence (Q62073 1-579): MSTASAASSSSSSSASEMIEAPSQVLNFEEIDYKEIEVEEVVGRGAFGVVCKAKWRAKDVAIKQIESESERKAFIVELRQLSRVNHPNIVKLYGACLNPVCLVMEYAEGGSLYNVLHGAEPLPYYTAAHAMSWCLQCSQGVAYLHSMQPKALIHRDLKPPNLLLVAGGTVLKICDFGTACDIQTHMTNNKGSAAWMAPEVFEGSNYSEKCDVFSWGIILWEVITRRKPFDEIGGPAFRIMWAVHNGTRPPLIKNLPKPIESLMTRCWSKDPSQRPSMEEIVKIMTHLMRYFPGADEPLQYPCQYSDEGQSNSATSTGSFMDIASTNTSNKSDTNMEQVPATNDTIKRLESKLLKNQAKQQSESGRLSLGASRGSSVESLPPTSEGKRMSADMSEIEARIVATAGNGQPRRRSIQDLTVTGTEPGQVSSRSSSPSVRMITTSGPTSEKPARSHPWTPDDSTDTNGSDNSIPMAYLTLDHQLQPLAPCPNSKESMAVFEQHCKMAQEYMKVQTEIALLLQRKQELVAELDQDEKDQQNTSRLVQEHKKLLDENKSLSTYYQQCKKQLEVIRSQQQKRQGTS
Assay: Yeast 2-hybrid method, β-galactosidase activity: binding ability of TAB1 deletion mutants to TAK1
Type: cell-based
Conditions: yeast L40 co-transformed with TAK1 2-hybrid expression plasmid; GAL4 activation domain fusion; measured three times
endpoint-name: specific activity: β-galactosidase activity as ratio to TAB1C68

{"substance": "TAB1C45 Δ20: lacks 20 amino acids from the carboxy terminal of the 45 amino acid carboxy terminal portion of TAB1 (GLFRSRPAHSLPPGEDGRVEPYVDF; UniProt Q15750 460-484, looked up, fragment)", "experimental-target": "TAK1 (Mus musculus)", "result-number": 0.11}
{"substance": "TAB1C45 Δ22: lacks 22 amino acids from the carboxy terminal of the 45 amino acid carboxy terminal portion of TAB1 (GLFRSRPAHSLPPGEDGRVEPYV; UniProt Q15750 460-482, looked up, fragment)", "experimental-target": "TAK1 (Mus musculus)", "result-number": 0.02}
{"substance": "TAB1C45 Δ25: lacks 25 amino acids from the carboxy terminal of the 45 amino acid carboxy terminal portion of TAB1 (GLFRSRPAHSLPPGEDGRVE; UniProt Q15750 460-479, looked up, fragment)", "experimental-target": "TAK1 (Mus musculus)", "result-number": 0.01}

====

As shown below, each of these substances has a reported specific activity: β-galactosidase activity as ratio to TAB1C68 value.
Molecular target: TAK1 (Mus musculus)
Construct: A gene encoding a full-length TAK1 was prepared by digesting yeast 2-hybrid expression plasmid pBTMHu11F; expressed in transfected cells; host or cells: Saccharomyces cerevisiae strain L40
Sequence (Q62073 1-579): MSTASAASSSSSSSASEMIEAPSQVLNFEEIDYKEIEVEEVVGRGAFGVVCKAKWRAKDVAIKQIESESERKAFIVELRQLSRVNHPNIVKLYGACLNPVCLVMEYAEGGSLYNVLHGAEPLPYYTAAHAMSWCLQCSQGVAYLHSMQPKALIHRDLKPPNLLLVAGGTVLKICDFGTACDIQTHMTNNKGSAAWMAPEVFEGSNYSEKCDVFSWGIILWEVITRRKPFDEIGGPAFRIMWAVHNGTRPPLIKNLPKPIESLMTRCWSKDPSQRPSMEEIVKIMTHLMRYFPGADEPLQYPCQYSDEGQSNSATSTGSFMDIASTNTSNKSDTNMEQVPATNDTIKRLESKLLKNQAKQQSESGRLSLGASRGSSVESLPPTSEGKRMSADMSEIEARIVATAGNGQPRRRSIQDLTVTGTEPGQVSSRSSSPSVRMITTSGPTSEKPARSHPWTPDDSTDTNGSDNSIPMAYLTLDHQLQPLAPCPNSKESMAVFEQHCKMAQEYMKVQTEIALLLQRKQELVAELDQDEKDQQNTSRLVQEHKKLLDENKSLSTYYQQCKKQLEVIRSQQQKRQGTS
Assay: Yeast 2-hybrid method, β-galactosidase activity: binding ability of TAB1 deletion mutants to TAK1
Type: cell-based
Settings: yeast L40 co-transformed with TAK1 2-hybrid expression plasmid; GAL4 activation domain fusion; measured three times
endpoint-name: specific activity: β-galactosidase activity as ratio to TAB1C68

{"substance": "TAB1C20: polypeptide comprising 20 amino acids of the carboxy terminal of TAB1 (AEFYRLWSVDHGEQSVVTAP; left off: large carriers)", "experimental-target": "TAK1 (Mus musculus)", "result": 0.03}
{"substance": "TAB1C45 Δ24: lacks 24 amino acids from the carboxy terminal of the 45 amino acid carboxy terminal portion of TAB1 (GLFRSRPAHSLPPGEDGRVEP; UniProt Q15750 460-480, looked up, fragment)", "experimental-target": "TAK1 (Mus musculus)", "result": 0.02}
{"substance": "TAB1C24: polypeptide comprising 24 amino acids of the carboxy terminal of TAB1 (YVDFAEFYRLWSVDHGEQSVVTAP; left off: large carriers)", "experimental-target": "TAK1 (Mus musculus)", "result": 0.35}
{"substance": "TAB1C45 Δ19: lacks 19 amino acids from the carboxy terminal of the 45 amino acid carboxy terminal portion of TAB1 (GLFRSRPAHSLPPGEDGRVEPYVDFA; UniProt Q15750 460-485, looked up, fragment)", "experimental-target": "TAK1 (Mus musculus)", "result": 0.13}
{"substance": "TAB1C21: polypeptide comprising 21 amino acids of the carboxy terminal of TAB1 (FAEFYRLWSVDHGEQSVVTAP; left off: large carriers)", "experimental-target": "TAK1 (Mus musculus)", "result": 0.03}
{"substance": "TAB1C45 Δ23: lacks 23 amino acids from the carboxy terminal of the 45 amino acid carboxy terminal portion of TAB1 (GLFRSRPAHSLPPGEDGRVEPY; UniProt Q15750 460-481, looked up, fragment)", "experimental-target": "TAK1 (Mus musculus)", "result": 0.00}
{"substance": "TAB1C45 Δ21: lacks 21 amino acids from the carboxy terminal of the 45 amino acid carboxy terminal portion of TAB1 (GLFRSRPAHSLPPGEDGRVEPYVD; UniProt Q15750 460-483, looked up, fragment)", "experimental-target": "TAK1 (Mus musculus)", "result": 0.01}
{"substance": "TAB1C23: polypeptide comprising 23 amino acids of the carboxy terminal of TAB1 (VDFAEFYRLWSVDHGEQSVVTAP; left off: large carriers)", "experimental-target": "TAK1 (Mus musculus)", "result": 0.05}
{"substance": "TAB1C22: polypeptide comprising 22 amino acids of the carboxy terminal of TAB1 (DFAEFYRLWSVDHGEQSVVTAP; left off: large carriers)", "experimental-target": "TAK1 (Mus musculus)", "result": 0.03}

Data origin: patent US6551840B2
